Target: human GLP-1 receptor (human, UniProt P43220 24-463)
Assay: cell-based or functional assay
MEASURED_METRIC: EC50, CreLuc reporter, 0.5% hP (nM)
Use nM as the unit, but write only the number.

Reference set (2 entries):
YXEGTFTSDYSIXLEKQAQXAFVRALINKXTRQRY (Aib at 2, 13, 20, 30; Lys29 epsilon-amino: C18DA-gGlu-gGlu-gGlu-gGlu-gGlu-gGlu-eLys; C-terminal amide) [Compound 128] :: 0.7
YXEGTFTSDYSIXLDRQAQXAFVRHLINKXTRQRY (Aib at 2, 13, 20, 30; Lys29 epsilon-amino: C18DA-gGlu-gGlu-gGlu-gGlu-gGlu-gGlu-eLys; C-terminal amide) [Compound 147] :: 0.3

Name the recorded EC50, CreLuc reporter, 0.5% hP of the item YXEGTFTSDYSIXLEKQAEXAFVRHLINKXTRQRY (Aib at 2, 13, 20, 30; Lys29 epsilon-amino: C20DA-gGlu-gGlu-gGlu-gGlu-gGlu-gGlu-eLys; C-terminal amide) [Compound 104] in your answer.
2

Answer with the recorded EC50, CreLuc reporter, 0.5% hP of YXEGTFTSDYSIXLEEQAQXAFVRHLINKXTRQRY (Aib at 2, 20, 30; aMeL at 13; Lys29 epsilon-amino: C20DA-gGlu-gGlu-gGlu-gGlu-gGlu-gGlu-eLys; C-terminal amide) [Compound 89] only.
0.2

Identify EC50, CreLuc reporter, 0.5% hP associated with the binder YXEGTFTSDYSIXLEKQAEXAFVRHLINKXTRQRY (Aib at 2, 20, 30; aMeL at 13; Lys29 epsilon-amino: C20DA-gGlu-gGlu-gGlu-gGlu-gGlu-gGlu-eLys; C-terminal amide) [Compound 103]
0.4

Provide EC50, CreLuc reporter, 0.5% hP value for the following binder: YXEGTFTSDLSIXLEKQAQXAFVRHLLNKXTRQRY (Aib at 2, 13, 20, 30; Lys29 epsilon-amino: C20DA-gGlu-gGlu-gGlu-gGlu-gGlu-gGlu-eLys; C-terminal amide) [Compound 115]
7
